- TARGET_SYSTEM: JAK2 (Homo sapiens, UniProt O60674)
- Sequence (O60674 whole entry, species assumed): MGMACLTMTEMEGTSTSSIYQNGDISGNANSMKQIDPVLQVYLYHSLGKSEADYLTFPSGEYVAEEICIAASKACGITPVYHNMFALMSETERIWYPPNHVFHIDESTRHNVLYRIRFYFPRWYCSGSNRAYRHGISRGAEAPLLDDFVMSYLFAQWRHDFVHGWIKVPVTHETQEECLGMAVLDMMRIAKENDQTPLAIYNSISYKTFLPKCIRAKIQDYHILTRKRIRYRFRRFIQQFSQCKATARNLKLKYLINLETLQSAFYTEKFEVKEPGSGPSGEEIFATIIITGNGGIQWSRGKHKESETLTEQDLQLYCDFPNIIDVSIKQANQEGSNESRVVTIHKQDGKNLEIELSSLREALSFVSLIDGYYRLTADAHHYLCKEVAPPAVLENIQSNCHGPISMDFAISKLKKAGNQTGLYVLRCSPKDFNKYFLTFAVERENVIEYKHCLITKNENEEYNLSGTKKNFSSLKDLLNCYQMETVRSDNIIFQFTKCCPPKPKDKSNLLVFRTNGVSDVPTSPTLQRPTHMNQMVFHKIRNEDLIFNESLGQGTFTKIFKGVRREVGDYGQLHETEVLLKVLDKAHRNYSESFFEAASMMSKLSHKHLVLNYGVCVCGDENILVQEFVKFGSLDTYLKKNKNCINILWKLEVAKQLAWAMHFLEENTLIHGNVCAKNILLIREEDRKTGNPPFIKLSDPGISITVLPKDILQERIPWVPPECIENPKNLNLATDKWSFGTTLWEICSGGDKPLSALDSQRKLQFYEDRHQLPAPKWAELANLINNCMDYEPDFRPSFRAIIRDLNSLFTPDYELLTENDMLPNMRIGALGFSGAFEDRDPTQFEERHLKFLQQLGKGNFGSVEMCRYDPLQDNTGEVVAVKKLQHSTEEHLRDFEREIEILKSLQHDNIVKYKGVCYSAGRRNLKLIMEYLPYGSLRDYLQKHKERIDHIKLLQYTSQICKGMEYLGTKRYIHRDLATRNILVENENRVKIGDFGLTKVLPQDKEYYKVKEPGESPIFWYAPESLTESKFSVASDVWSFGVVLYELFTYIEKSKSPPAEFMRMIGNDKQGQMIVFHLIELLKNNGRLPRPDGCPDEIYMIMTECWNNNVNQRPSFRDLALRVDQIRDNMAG
- EXPERIMENTAL_DETAILS: JAK kinase inhibitor activity detection (ULight-JAK-1 substrate, Eu-labeled anti-phosphotyrosine antibody), JAK2
- Format: biochemical
- MEASUREMENT_CONDITIONS: JAK2 0.125 nM, substrate 50 nM, ATP 10 μM, 1 h room temperature
MEASURE_NAME: IC50 (nM)

Examples with answers:
- COMPOUND: "C[C@@H](O)c1nc2cnc3[nH]ccc3c2n1N1CCC2(CC1)CC2C#N (stereo partly shown)"
  MEASURE_NAME: "IC50"
  ASSAY_VALUE: 56.7
- COMPOUND: "C[C@H](O)c1nc2cnc3[nH]ccc3c2n1N1CCC(CC#N)CC1"
  MEASURE_NAME: "IC50"
  ASSAY_VALUE: 5

(a) C[C@@H](O)c1nc2cnc3[nH]ccc3c2n1N1C2CCC1CC(=CC#N)C2
(b) C[C@@H](O)c1nc2cnc3[nH]ccc3c2n1N1CCC(C(C)(C)C#N)CC1
Ask: # query: argmin of IC50 over a and b Write down the label attached to your selection.
Result: a
(a: 4.04 nM, b: 16.1 nM)

* * *

Listed here: compounds with reported IC50 for JAK1 (Homo sapiens, UniProt P23458).
MEASURE_NAME: IC50 (nM)

- COMPOUND: "N#CCC(=O)NC1CCN(n2cnc3cnc4[nH]ccc4c32)C1 (centres unmarked) [Example 33]"
  UNIT_OF_MEASUREMENT: "nM"
  IC50: 11.2
- COMPOUND: "C[C@H](O)c1nc2cnc3[nH]ccc3c2n1N1CCC(CC#N)CC1 [Example 8]"
  UNIT_OF_MEASUREMENT: "nM"
  IC50: 1.5
- COMPOUND: "CC[C@@H]1C[C@@H](CC#N)CN1n1cnc2cnc3[nH]ccc3c21 [Example 36-1]"
  UNIT_OF_MEASUREMENT: "nM"
  IC50: 6.8

(A) CC1(CC#N)CCN(n2cnc3cnc4[nH]ccc4c32)CC1 [Example 17]
(B) N#CCC1CCN(n2cnc3cnc4[nH]ccc4c32)CC1 [Example 2]
Ask: Could you point out whether the larger IC50 belongs to A or to B ? Response format: the label of the selected entry.
Result: A
(A: 2 nM, B: 0.28 nM)
